Assay: Drug uptake in CD16 mouse brain at 3 mg/kg, po after 30 mins by LC-MS/MS analysis
Assay type: ADME, organism-based
Conditions: read-out: Drug uptake
reportedMetric: concentration at 0.5 h

Request: Could you please provide reported concentration at 0.5 h for NC1=NC(c2ccc(F)cc2)NC(=O)N1 (stereo unspecified) ? Thanks!
Result: 620 nM

* * *

Test: Oral bioavailability in CD16 mouse at 10 mg/kg
Type: ADME, organism-based
Conditions: in vivo
reportedMetric: bioavailability (%)
All answers are understood in %, so give the number only.

Request: Respond only with bioavailability recorded for NC1=NC(c2ccc(F)cc2)NC(=O)N1 (stereo unspecified)
Result: 66
